# Measurement Description: soluble on expression in E. coli; label from the status in PepcDB or PDB records
Property: soluble on expression in E. coli

>>> meas_value("MSLEKELVTWFNILNKPPLEYLKGVEDFYNAYGEVLEMQDRHAHLLSYKDDDYLHVILCASILHHYSDQDIETLKELLVKFYYQDWVAGQTKTTRSQTCCNIINVLKEKKSMDYITSIVKEYLDDKNITQRFKDNLKDSNLYTKFYFINGKTAKKNSWVKPILILVEYFMSDNANPACIKMDDDLHVERILPQNPDPSSQWMKDFSEEERGLYTHSLANLTLLGGKKNTKALSQALNQDFKEKKEIYMGKTIMLDNKKTFRVMTCYDMTKNDVCRYTEWTPTSLEKRKESEGHHHHHH")
"not soluble"
>>> meas_value("MGSDKIHHHHHHMIFSMSSLHDMRFICLRTAPLKNSAYLLSALLIIACQPTSPTEALTSENNEMVDMPLISADSVTITPDHILSIKPTRYQPSLGLQGRIDSIKQINLVAGQPLTVEQVLVSENQWVKKGTPLLTVRRQEIFNKPTMSDDPATDVDASLNTTASNIDRASASDNTSQTSDLITLRARFSGRVENLSVQAGQKIEAQTALLKLSDATELHFISTLPIEAESQISVGQTVNFTAEDRVDKFTGQVSKVQALKQPIQLLVYVNVINNEVSRNQLAPGMQVTGRVDYGQIEVGTIVPKNALHNVDLTQIQVPPYKPLRSLTANIWIIGQDQRLTRQPIEVIEYDPLTKQYLIAGISSDSLICLANLPIESKGKKVVVS")
"not soluble"
>>> meas_value("MGSDKIHHHHHHMKNMTLDSLDMLSANILVNLYEKHSASSVAMEMNIPAPKVSRCLQHARMIFNDPLFIRKKHGLEPNEFTRQLYPLVKALVQCGEQLQQLESCHDLAASQVMVLYVSDLLIAELPQRLSSAISEAQLPISYELRTGSVDLVEDLAQGLVDLAIVSESSDRALQDDRLIVSPLTELTHLYLLCSHKHPLLQQEISLGNIANYPYLSAFGQLDKQAPDPFQRYCAQQRLSCHLAPVELGREGLAFHQLYRYLSDDKTVSLLPYSRVYEHSEQLPGLHVCCLSGMDTARLYRDQPYPRLYMLSRSGRGGAHLEWMKQEIGQLIKQNVH")
"not soluble"
